- Test system: EKVX NSCLC
- measurement protocol: NCI tumour cell line growth inhibition, 48 h

{"compound": "Oc1cccc(Nc2nc3ccccc3c3occc23)c1", "TGI": "28.5 µM"}
{"compound": "CNC(C)(C)Cc1ccc(Cl)cc1", "TGI": "> 100 µM"}
{"compound": "O=C(c1ccc2ccccc2c1)c1c(C(F)(F)F)n([O-])c2ccc(C(F)(F)F)cc2[n+]1=O", "TGI": "3.2 µM"}
{"compound": "N#CC(N)=Nc1ccccc1", "TGI": "> 100 µM"}
{"compound": "CC(=O)Nc1ccc2c(C)c3c(nc2n1)[nH]c1ccccc13", "TGI": "98.1 µM"}
{"compound": "Cc1ccc2cnc(N)c(C#Cc3cc(C(=O)Nc4ccc(CN5CCN(C)CC5)c(C(F)(F)F)c4)cnc3C)c2c1", "TGI": "1.53 µM"}
{"compound": "O=C(Nc1cccc(Cl)c1)Nn1cnnc1", "TGI": "> 100 µM"}
{"compound": "O=C(O)c1nc(NCc2nc3cc(Cl)ccc3o2)n[nH]1", "TGI": "> 100 µM"}
{"compound": "O=c1cc(-c2cccs2)[nH]c2cc3c(cc12)OCO3", "TGI": "> 100 µM"}
{"compound": "COc1ccc2c(c1)C(=O)/C(=C/c1cccc(OCC(=O)c3ccccc3)c1)CC2", "TGI": "> 100 µM"}
{"compound": "O=S(=O)(/N=c1\\scc(-c2ccccc2)n1-c1ccccc1)c1ccc(N2N=C3c4ccccc4CC3C2c2ccc(Cl)cc2)cc1 (stereo not drawn)", "TGI": "> 100 µM"}
{"compound": "N=C1C(O)C2(I)c3ccccc3N3C(=N)C(O)C4c5ccccc5N1C4C32 (stereo not drawn)", "TGI": "> 100 µM"}
{"compound": "CCc1cccc(C)c1NS(=O)(=O)c1ccccc1", "TGI": "> 100 µM"}
{"compound": "O=C1CC(CC(=O)C2CCCCC2=O)C(=O)N1 (stereo not drawn)", "TGI": "> 100 µM"}
{"compound": "O=c1[nH]cc(NCCCl)c(=O)[nH]1", "TGI": "> 100 µM"}
{"compound": "Cc1c(OC(C)C(=O)O)ccc2c(-c3ccccc3)cc(=O)oc12 (stereo not drawn)", "TGI": "> 100 µM"}
{"compound": "COc1cc(C)ccc1C(=O)c1ccc(C)cc1OC", "TGI": "> 100 µM"}
{"compound": "C=CCn1c(=O)c(C)cn(COCCO)c1=O", "TGI": "> 100 µM"}
{"compound": "c1ccc(C2ONC3=NCCN32)cc1 (stereo not drawn)", "TGI": "> 100 µM"}
{"compound": "C=CCC1(C#N)C(=S)NC2=C(C(=O)CC(C)(C)C2)C1c1ccccc1 (stereo not drawn)", "TGI": "60.5 µM"}
{"compound": "Cn1nc2ccc([N+](=O)[O-])c(Cn3nnc4ccccc43)c2n1", "TGI": "> 100 µM"}
{"compound": "FC(F)(F)c1cccc(-c2nc3nc(Cl)c(Cl)nc3[nH]2)c1", "TGI": "23.2 µM"}
{"compound": "COC(=O)c1sc(C(=O)OC)c2c1CS(=O)C2", "TGI": "> 100 µM"}
{"compound": "CC1=NNC(=O)C1C1C(=O)NN=C(c2c[nH]c3ccccc23)C1Br (stereo not drawn)", "TGI": "> 100 µM"}
{"compound": "C[C@@H](NC(C#N)c1ccco1)c1ccccc1 (stereo partly drawn)", "TGI": "> 100 µM"}
{"compound": "COc1cc(Cl)cc(=O)c(O)c1OC", "TGI": "> 91.8 µM"}
{"compound": "Clc1ccc(-c2cn3ccnc3c(-c3ccc(Cl)cc3)n2)cc1", "TGI": "> 100 µM"}
{"compound": "O=C(O)CCc1nc2c(n1-c1ccccc1)C(=O)c1ccccc1C2=O", "TGI": "> 100 µM"}
